Listed variants paired with reported abundance fitness
B1: Pituitary-specific positive transcription factor 1, residues 130 to 198; numbered along this chain, P28069 (parent)
chain: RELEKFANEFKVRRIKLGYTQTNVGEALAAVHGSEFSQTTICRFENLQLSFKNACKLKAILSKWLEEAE

Variants of: B1
Assay: abundance fitness (aPCA) (normalised: wild type 0, dead -1); higher = more abundant; growth selection in yeast, the domain comes from the species named
Conditions: Homo sapiens

Before answering, review these 6 worked examples.
* A68K | 0.047
* I60R | -0.346
* A7T | -0.356
* V12D | -0.175
* T20N | -0.384
* K58F | -0.933

Form field abundance fitness, entry "F36W" : -0.229

Form field abundance fitness, entry "I60G" : -0.495

Form field abundance fitness, entry "T39R" : -0.096

Form field abundance fitness, entry "T40D" : 0.308

Form field abundance fitness, entry "E2G" : -0.373

Numbers sourced from the Human Domainome abundance scans (Beltran et al. 2025).
